molecular target: Beta-lactamase (Pseudomonas aeruginosa) (UniProt Q79MP6); experiment: Inhibition of Pseudomonas aeruginosa beta-lactamase IMP-1 expressed in Escherichia coli BL21(DE3) at 10 uM using CENTA as chromogenic substrate
Sequence (Q79MP6 19-246 limits assumed): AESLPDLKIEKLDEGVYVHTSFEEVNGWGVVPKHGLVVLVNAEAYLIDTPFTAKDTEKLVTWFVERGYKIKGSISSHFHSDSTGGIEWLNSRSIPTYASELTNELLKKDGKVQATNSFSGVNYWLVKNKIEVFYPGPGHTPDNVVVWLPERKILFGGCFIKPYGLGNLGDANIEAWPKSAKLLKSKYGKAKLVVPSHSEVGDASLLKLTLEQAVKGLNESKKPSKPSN
Response key: rule met means inhibition >= 40%; rule not met means inhibition < 40%.

{"Smiles Structure": "O=C(c1ccccc1)c1ccc(-c2nnc(S)[nH]2)cc1", "Class Name": "rule not met"}
{"Smiles Structure": "CNC(=S)NNC(=O)C(C)(C)C", "Class Name": "rule not met"}
{"Smiles Structure": "NC(=S)NNC(=O)c1ccc(C(=O)c2ccccc2)cc1", "Class Name": "rule not met"}
{"Smiles Structure": "NC(S)=NNC(=O)c1ccccc1", "Class Name": "rule not met"}
{"Smiles Structure": "Cc1ccc(C(=O)c2ccc(C(=O)NNC(N)=S)cc2)cc1", "Class Name": "rule not met"}

Q. // inclusive: inhibition at least 40%? input: NC(=S)NNC(=O)c1ccc(C(=O)c2ccccc2Cl)cc1
A. rule met

Q. // inclusive: inhibition at least 40%? input: NC(=S)NNC(=O)c1ccccc1C(=O)O
A. rule not met

Q. // inclusive: inhibition at least 40%? input: NC(=S)NNC(=O)c1ccc(C(=O)c2ccc([N+](=O)[O-])cc2)cc1
A. rule met
